Can you tell me melting point for the items I'm about to list?

Known results for compounds:
CCCC(CCOc1c(-c2ccc(S(C)(=O)=O)cc2)cnn(-c2ccc(F)cc2)c1=O)SC (stereo not drawn) [Example 433] = 90 to 92 °C
CS(=O)(=O)c1ccc(-c2cnn(CC(F)(F)F)c(=O)c2N)cc1 [Example 294] = > 260 °C

Look up melting point for this compound: CS(=O)(=O)c1ccc(-c2cnn(CC(F)(F)F)c(=O)c2NCC2CC2)cc1 [Example 302]
145 to 146 °C

----------
- system-under-test: recombinant human Cox-2 (r-hu Cox-2) (Homo sapiens)
- Construct: made in house; host or cells: baculovirus/Sf9 insect cells (microsomes)
- Sequence (P35354 18-604): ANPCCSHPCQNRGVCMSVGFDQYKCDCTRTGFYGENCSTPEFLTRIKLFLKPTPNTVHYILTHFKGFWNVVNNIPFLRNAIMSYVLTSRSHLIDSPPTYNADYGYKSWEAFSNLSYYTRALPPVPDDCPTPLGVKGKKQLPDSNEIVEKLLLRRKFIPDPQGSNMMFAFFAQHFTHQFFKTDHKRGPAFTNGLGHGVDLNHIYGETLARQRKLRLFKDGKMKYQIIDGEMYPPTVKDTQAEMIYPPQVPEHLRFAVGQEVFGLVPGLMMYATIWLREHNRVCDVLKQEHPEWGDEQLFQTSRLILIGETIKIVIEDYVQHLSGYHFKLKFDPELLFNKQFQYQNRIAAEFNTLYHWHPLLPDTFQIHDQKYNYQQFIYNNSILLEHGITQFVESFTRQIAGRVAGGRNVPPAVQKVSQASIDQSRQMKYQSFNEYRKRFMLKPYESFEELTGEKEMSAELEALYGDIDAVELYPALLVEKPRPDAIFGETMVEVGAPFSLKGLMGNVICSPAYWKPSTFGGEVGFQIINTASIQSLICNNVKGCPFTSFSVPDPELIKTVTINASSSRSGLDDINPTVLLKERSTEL
- method-description: Recombinant human PGHS-2 enzyme assay (RHUCX2)
- Format: biochemical
- run-parameters: 0.1 μM; read-out: RHUCX2 % Inh. at Dose
reported-metric: inhibition at 0.1 µM (%)
Answers are plain numbers, in %.

For each of the compounds below, note its inhibition at 0.1 µM.
1. CS(=O)(=O)c1ccc(-c2cnn(Cc3ccc(F)cc3)c(=O)c2-c2ccc(F)cc2)cc1 [Example 20]
2. CC(C)CCc1c(-c2ccc(S(N)(=O)=O)cc2)cnn(-c2cccc(Cl)c2)c1=O [Example 392]
3. CC(C)COc1c(-c2ccc(S(C)(=O)=O)cc2)cnn(-c2ccc(F)c(F)c2)c1=O [Example 346]
4. NS(=O)(=O)c1ccc(-c2cnn(CC(F)=C(F)F)c(=O)c2-c2ccc(F)cc2)cc1 [Example 141]
5. NS(=O)(=O)c1ccc(-c2cnn(Cc3ccc(F)cc3)c(=O)c2-c2ccc(F)cc2)cc1 [Example 150]

[86, 82, 76, 95, 100]

Look up inhibition at 0.1 µM for this compound: CS(=O)(=O)c1ccc(-c2cnn(Cc3ccccc3)c(=O)c2-c2ccc(Cl)cc2)cc1 [Example 53]
77

----------
- System: air pouch prostaglandin biosynthesis (Cox-2)
- method-description: Carrageenan induced air pouch prostaglandin biosynthesis model (CAP)
- Type: in vivo, rat
- run-parameters: 4 h; 3 mpk, rat; read-out: CAP % Inhib. @ 3 mpk
reported-metric: inhibition in vivo at 3 mg/kg (%)
One number for each entry, in %.

CC(C)CCc1c(-c2ccc(S(N)(=O)=O)c(F)c2)cnn(CC(F)(F)F)c1=O [Example 226] = 40.5
C[C@@H](CO)COc1c(-c2ccc(S(N)(=O)=O)cc2)cnn(-c2ccc(F)c(F)c2)c1=O [Example 464] = 70
CC(C)COc1c(-c2ccc(S(C)(=O)=O)c(F)c2)cnn(-c2ccc(F)c(Cl)c2)c1=O [Example 205] = 54
CC(C)CCc1c(-c2ccc(S(N)(=O)=O)cc2)cnn(-c2ccc(F)cc2)c1=O [Example 396] = 85

For each of the compounds below, note its inhibition in vivo at 3 mg/kg.
1. NS(=O)(=O)c1ccc(-c2cnn(-c3ccc(F)c(F)c3)c(=O)c2-c2ccc(F)cc2)cc1 [Example 400]
2. CS(=O)(=O)c1ccc(-c2cnn(-c3cccc(Cl)c3)c(=O)c2Oc2ccc(F)cc2)cc1 [Example 112]
3. CC(C)(C)COc1c(-c2ccc(S(C)(=O)=O)cc2)cnn(-c2ccc(F)c(F)c2)c1=O [Example 349]

1: 82.5; 2: 42.5; 3: 63

----------
Can you tell me melting point for the items I'm about to list?

Known results for compounds:
Cc1ccc(-n2ncc(-c3ccc(S(C)(=O)=O)cc3)c(-c3ccc(F)cc3)c2=O)s1 = 219 to 224 °C
Cc1cc(-c2c(-c3ccc(S(N)(=O)=O)cc3)cnn(-c3ccc(F)c(Cl)c3)c2=O)ccc1F = 243 to 245 °C

Now, please, on to the next compound.
Look up melting point for this compound: NS(=O)(=O)c1ccc(-c2cnn(CC=C(F)F)c(=O)c2-c2ccc(F)cc2)cc1
191 to 194 °C
